Tested on: mPTP
assayMethodText: mPTP activity (Ca2+ retention) assay in isolated rat liver mitochondria
Format: biochemical
conditionSet: isolated rat liver mitochondria; average value from multiple experiments (n ≥ 2)
Each entry below carries its reported mPTP Rat liver pIC50.
Respond using a number only.

Cc1c(F)cccc1NC(=O)/C=C/c1ccc2oc(=O)[nH]c2c1 [Example 6] :: 6.8
Cc1n[nH]c2cc(/C=C/C(=O)NC3CCc4ccccc43)ccc12 (centres unmarked) [Example 25] :: 6.9
Cc1n[nH]c2cc(/C=C/C(=O)NC3c4ccccc4OCC3C)ccc12 (centres unmarked) [Example 52] :: 6.9
COc1cc(C)c(NC(=O)/C=C/c2cc3[nH]nc(C#N)c3cc2F)c(C)n1 [Example 98] :: 6.9

query: Retrieve mPTP Rat liver pIC50 measured for Cc1c(F)cccc1NC(=O)/C=C/c1ccc2c(C)n[nH]c2c1 [Example 37] and print it.
result: 8.1

query: Retrieve mPTP Rat liver pIC50 measured for CC1CCCCC1NC(=O)/C=C/c1ccc2c(c1)NC(=O)C2 (centres unmarked) [Example 64] and print it.
result: 4.9

query: Retrieve mPTP Rat liver pIC50 measured for Cc1ccc(F)c(C)c1NC(=O)/C=C/c1ccc2c(c1)[nH]c(=O)n2C [Example 30] and print it.
result: 7.4

query: Retrieve mPTP Rat liver pIC50 measured for Cc1c(Cl)cccc1N(C)C(=O)/C=C/c1ccc2oc(=O)[nH]c2c1 [Example 48] and print it.
result: 5.9
